# Study system: MAO-B (Homo sapiens, UniProt P27338)
# Sequence (P27338 1-520): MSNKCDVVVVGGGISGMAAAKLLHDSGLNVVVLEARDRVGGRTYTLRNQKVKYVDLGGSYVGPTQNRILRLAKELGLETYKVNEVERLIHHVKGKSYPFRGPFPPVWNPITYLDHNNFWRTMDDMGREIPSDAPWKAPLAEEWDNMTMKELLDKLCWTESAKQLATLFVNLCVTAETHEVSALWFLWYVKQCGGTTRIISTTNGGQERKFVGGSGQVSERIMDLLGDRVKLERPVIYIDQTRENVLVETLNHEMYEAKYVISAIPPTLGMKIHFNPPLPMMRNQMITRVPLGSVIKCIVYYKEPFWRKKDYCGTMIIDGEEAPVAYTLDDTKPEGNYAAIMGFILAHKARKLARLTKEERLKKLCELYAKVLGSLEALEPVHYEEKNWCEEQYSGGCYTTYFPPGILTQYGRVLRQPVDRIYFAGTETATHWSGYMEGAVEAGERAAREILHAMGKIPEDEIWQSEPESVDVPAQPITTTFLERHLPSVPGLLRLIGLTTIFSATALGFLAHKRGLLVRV
Exam item: assign yes (1) to entries whose IC50 is below 10 µM and no (0) to entries at or above 10 µM. Note that a value of exactly 10 µM receives no (0).

// known answers, use as guide
{"Compound": "Cc1ccc2c(c1)C(=O)C1(CCCC1)N2Cc1ccccc1 [Compound 11b]", "Study system": "MAO-B (Homo sapiens, UniProt P27338)", "Assigned category": "yes (1)"}
{"Compound": "O=C1c2ccccc2NC12CCCC2 [Compound 10a]", "Study system": "MAO-B (Homo sapiens, UniProt P27338)", "Assigned category": "no (0)"}
{"Compound": "O=C1c2ccccc2N(Cc2ccccc2Br)C12CCCC2 [Compound 11k]", "Study system": "MAO-B (Homo sapiens, UniProt P27338)", "Assigned category": "no (0)"}

Lab note: confirm whether the reported IC50 for this compound is below 10 µM, equality not counting. compound: O=C1c2cc(Br)ccc2N(Cc2ccccc2)C12CCCC2 [Compound 11d] yes (1)

Lab note: confirm whether the reported IC50 for this compound is below 10 µM, equality not counting. compound: Cc1ccc2c(c1)C(=O)C1(CCCC1)N2 [Compound 10b] no (0)

Lab note: confirm whether the reported IC50 for this compound is below 10 µM, equality not counting. compound: O=C1c2ccccc2N(Cc2ccc(Br)cc2)C12CCCC2 [Compound 11f] yes (1)
